TARGET_ENTITY: C-C chemokine receptor type 2 (Homo sapiens, UniProt P41597)
Sequence (P41597 whole entry): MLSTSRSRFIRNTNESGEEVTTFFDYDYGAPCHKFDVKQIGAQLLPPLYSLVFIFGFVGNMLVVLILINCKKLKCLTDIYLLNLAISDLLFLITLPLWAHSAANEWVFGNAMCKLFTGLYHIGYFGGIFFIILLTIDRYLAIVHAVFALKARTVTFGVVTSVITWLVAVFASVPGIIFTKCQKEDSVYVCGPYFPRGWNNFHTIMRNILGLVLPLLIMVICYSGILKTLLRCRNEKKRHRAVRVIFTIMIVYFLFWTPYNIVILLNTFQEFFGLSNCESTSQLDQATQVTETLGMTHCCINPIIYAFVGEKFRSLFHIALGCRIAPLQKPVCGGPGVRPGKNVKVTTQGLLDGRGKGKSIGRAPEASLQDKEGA
TEST: Inhibitory effect on the binding of [125I]- MCP-1 to C-C chemokine receptor type 2-expressing CHO cells
READOUT_LABEL: IC50 (nM)
Give just the numeric value; nM need not be written.

Query string: Look at this compound and give its reported IC50. Cc1ccc(-c2ccc3c(c2)C=C(C(=O)Nc2ccc(C[N+](C)(C)C4CCOCC4)cc2)CCC3)cc1
Result string: 27

* * *

Test system: Human immunodeficiency virus 1
TEST: Inhibitory effects on HIV-1 (Ba-L) replication was evaluated in PBMCs
Assay type: functional, organism-based
READOUT_LABEL: pEC50
Note: pEC50 values are expressed as the negative base-10 logarithm of concentration in M.

Query string: So what's the measured pEC50 for this one? Cc1ccc(-c2ccc3c(c2)C=C(C(=O)Nc2ccc(C[N+](C)(C)C4CCOCC4)cc2)CCC3)cc1
Result string: 8.43

* * *

TARGET_ENTITY: UniProtKB P51677
Sequence (P51677 whole entry): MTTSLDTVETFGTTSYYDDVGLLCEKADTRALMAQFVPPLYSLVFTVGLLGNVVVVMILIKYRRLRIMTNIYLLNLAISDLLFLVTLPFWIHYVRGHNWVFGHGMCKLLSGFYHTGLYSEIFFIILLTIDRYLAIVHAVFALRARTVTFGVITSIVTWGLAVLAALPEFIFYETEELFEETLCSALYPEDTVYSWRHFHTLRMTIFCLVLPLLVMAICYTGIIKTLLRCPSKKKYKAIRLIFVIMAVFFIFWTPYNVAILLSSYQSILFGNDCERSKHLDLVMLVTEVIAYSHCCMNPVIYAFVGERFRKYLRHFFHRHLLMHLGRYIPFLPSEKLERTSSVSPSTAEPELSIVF
TEST: Inhibitory effect on the binding of [125I]- eotaxin to C-C chemokine receptor type 3- expressing CHO cells
READOUT_LABEL: IC50

Query string: IC50 for Cc1ccc(-c2ccc3c(c2)C=C(C(=O)Nc2ccc(C[N+](C)(C)C4CCOCC4)cc2)CCC3)cc1 ?
Result string: > 10 µM

* * *

TARGET_ENTITY: C-C chemokine receptor type 5 (Homo sapiens, UniProt P51681)
Sequence (P51681 whole entry): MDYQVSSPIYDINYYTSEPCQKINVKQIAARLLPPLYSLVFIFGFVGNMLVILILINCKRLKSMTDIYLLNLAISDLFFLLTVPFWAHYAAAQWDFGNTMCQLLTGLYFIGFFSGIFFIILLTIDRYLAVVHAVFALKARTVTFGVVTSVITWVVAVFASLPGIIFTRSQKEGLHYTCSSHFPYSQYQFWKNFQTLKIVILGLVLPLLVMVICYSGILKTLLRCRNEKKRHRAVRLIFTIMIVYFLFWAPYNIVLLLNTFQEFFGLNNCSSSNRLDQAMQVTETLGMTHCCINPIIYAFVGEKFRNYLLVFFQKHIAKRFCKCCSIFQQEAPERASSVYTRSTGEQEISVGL
We label by threshold. Values of IC50 strictly beneath 7 nM are Fulfilled. Values of 7 nM and up are Not fulfilled.

Query string: For this compound, is IC50 lower than 7 nM? C[N+](C)(Cc1ccc(NC(=O)C2=Cc3cc(-c4ccc(C(F)(F)F)cc4)ccc3OCC2)cc1)C1CCOCC1
Result string: Fulfilled

Query string: Thanks! And Cc1ccc(-c2cccc(/C=C/C(=O)Nc3ccc(C[N+]4(C)CCCCC4)cc3)c2)cc1 ?
Result string: Not fulfilled

* * *

TARGET_ENTITY: C-C chemokine receptor type 4 (Homo sapiens)
Sequence (P51679 whole entry): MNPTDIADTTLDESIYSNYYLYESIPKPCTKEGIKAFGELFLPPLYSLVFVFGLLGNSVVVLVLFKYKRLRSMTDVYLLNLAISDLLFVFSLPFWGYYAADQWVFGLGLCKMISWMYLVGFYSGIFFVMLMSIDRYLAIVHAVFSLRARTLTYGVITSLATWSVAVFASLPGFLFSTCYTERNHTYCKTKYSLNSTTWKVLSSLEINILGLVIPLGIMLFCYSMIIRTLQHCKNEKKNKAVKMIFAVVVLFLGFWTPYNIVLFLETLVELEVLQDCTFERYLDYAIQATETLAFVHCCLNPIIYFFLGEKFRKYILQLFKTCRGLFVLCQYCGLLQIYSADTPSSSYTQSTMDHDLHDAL
TEST: Inhibitory effect on the binding of [125I]TARC to C-C chemokine receptor type 4-expressing CHO cells
pIC50: −log10 of the molar value.
READOUT_LABEL: pIC50

Query string: # query: pIC50 of entry Cc1ccc(-c2ccc3c(c2)C=C(C(=O)Nc2ccc(C[N+](C)(C)C4CCOCC4)cc2)CCC3)cc1
Result string: < 5.00
